PROPERTY NAME: melting point

>  <COMPOUND>
Cc1c(NC(=O)c2ccc(-c3ccccc3)c(F)c2)ccc2cc(CN3CCCC3)cnc12

>  <melting point>
156 to 158 °C

$$$$
>  <COMPOUND>
C=Cc1ccc(CN2C(=O)c3ccccc3C2=O)c2ccccc12

>  <melting point>
146 to 147 °C

$$$$
>  <COMPOUND>
COc1cccc2c1C(=O)c1c(OC)cc(CBr)cc1C2=O

>  <melting point>
176 to 178 °C

$$$$
>  <COMPOUND>
COCOc1cccc(COc2cc3c(cc2-c2cc(C=CC(=O)O)ccc2OC)C(C)(C)CCC3(C)C)c1

>  <melting point>
144 to 146 °C

$$$$

Query: Quick one: give measured melting point for CC(=NO)c1ccc(OCC(O)(Cn2cncn2)C(C)(C)C)cc1 (centres undefined)
Reply: 129 to 132 °C

Query: Quick one: give measured melting point for CCCC(=O)NCc1cccc2c1C(=O)N(C1CCC(=O)NC1=O)C2=O (centres undefined)
Reply: 121 to 123 °C

Query: Quick one: give measured melting point for CN1N=C(c2cccc(F)c2)c2cc(Cl)ccc2CS1(=O)=O
Reply: 172 to 173 °C

Query: Quick one: give measured melting point for O=C(NCCCn1cncn1)c1ccco1
Reply: 63 to 66 °C

Query: Quick one: give measured melting point for CCc1cnc(N2CCN(C(=O)c3ccccc3NC3=c4ccccc4=NCN3c3ccccc3)CC2)nc1
Reply: 204 to 205 °C

###

Measured melting point, listed per entry.

Some compounds with known melting point results, for comparison:
>  <COMPOUND>
COc1ccc(C(=O)CC(C)C)c(Cl)c1Cl

>  <melting point>
49 to 54 °C

$$$$
>  <COMPOUND>
Cc1ccccc1C(Oc1cc(OCc2ccc3c(c2)OCO3)ccc1C#N)C(=O)O (racemic)

>  <melting point>
52 to 56 °C

$$$$
>  <COMPOUND>
CC1([N+](=O)[O-])C(c2ccco2)CC(=C(C#N)C#N)CC1c1ccco1 (stereo not given)

>  <melting point>
192 °C

$$$$
>  <COMPOUND>
C/C=C/c1cc2c(s1)[C@@H](OC(C)=O)[C@H](OC(C)=O)C[C@]2(OC(C)=O)C(=O)OC

>  <melting point>
140 to 143 °C

$$$$

// moving on: another record for melting point
Query: Quick one: give measured melting point for COc1c(-c2ccc3cc(NS(C)(=O)=O)ccc3c2)cc(-n2ccc(=O)[nH]c2=O)cc1C(C)(C)CO
Reply: 256 to 257 °C

###

PROPERTY NAME: melting point

Some compounds with known melting point results, for comparison:
>  <COMPOUND>
CCc1cnc(-c2ccc(OC)cc2)c(-c2ccc(OC)cc2)n1

>  <melting point>
76.5 to 78 °C

$$$$
>  <COMPOUND>
CCOP(=O)(Cc1ccc(N(C(=O)c2cc3c(s2)-c2c(SC)sc(C(N)=O)c2CC3)c2ccc(CP(=O)(OCC)OCC)cc2)cc1)OCC

>  <melting point>
262 to 263 °C

$$$$
>  <COMPOUND>
Cn1nc(-c2ccccc2)c2cccc(NS(C)(=O)=O)c2c1=O

>  <melting point>
217 to 218 °C

$$$$
>  <COMPOUND>
Nc1nc(O)c2cc(CCc3ccc(C(=O)N[C@@H](CCC(=O)O)C(=O)O)cc3)cnc2n1

>  <melting point>
> 200 °C

$$$$

Query: Quick one: give measured melting point for CCOC(=O)Nc1ccc(OC)c(OC)c1C=O
Reply: 86 to 88 °C

Query: Quick one: give measured melting point for CC1CC(=O)Nc2ncc3c(c21)CCCN3 (centres undefined)
Reply: 309 to 311 °C

Query: Quick one: give measured melting point for N#CC=Cc1ccc(C=O)cc1
Reply: 122 °C

Query: Quick one: give measured melting point for CC1(C)Cc2c(ccc3c2C(c2cccc(-c4ccc(NC(=O)OCc5ccccc5)cc4)c2)=NCC3(C)C)O1
Reply: 126 to 129 °C

Query: Quick one: give measured melting point for CN1CCN(C(=O)c2ccc(-c3cc(-c4c[nH]nc4-c4ccccn4)ccn3)cc2)CC1
Reply: 142 °C

###

PROPERTY NAME: melting point

>  <COMPOUND>
Oc1c2c(nn1-c1ccc(C(F)(F)F)cn1)CCc1ccccc1-2

>  <VALUE OBSERVED>
158 to 159 °C

$$$$
>  <COMPOUND>
Cc1nc(NC(=O)OCC[Si](C)(C)C)cs1

>  <VALUE OBSERVED>
101 to 103 °C

$$$$
>  <COMPOUND>
CCn1cc(C(=O)O)c(=O)c2c(F)c(F)c(N3CCN(C)CC3)c(F)c21

>  <VALUE OBSERVED>
221 to 223 °C

$$$$
>  <COMPOUND>
Cc1nn(CCO)c(C)c1S(=O)(=O)c1cc(Cl)cc(Cl)c1

>  <VALUE OBSERVED>
199 to 200 °C

$$$$
>  <COMPOUND>
CCOC(=O)C(=O)c1oc2cc(C)ccc2c1O

>  <VALUE OBSERVED>
113 to 115 °C

$$$$

Query: Quick one: give measured melting point for CC1(C)N=C(CCO)C2=C(N1)N(Cc1ccccc1)C(=O)C(N)O2 (stereo not drawn)
Reply: 124 to 126 °C

Query: Quick one: give measured melting point for N#Cc1cnc2n(c1=O)CCC2
Reply: 119 to 121 °C

Query: Quick one: give measured melting point for COc1cc(NC(C)=O)ccc1N1CCN(CCCNc2c(C)c(=O)n(C)c(=O)n2C)CC1
Reply: 178 to 180 °C

Query: Quick one: give measured melting point for COc1ccc(C(=O)NCc2ccc3c(c2)C(=O)N(C2CCC(=O)NC2=O)C3=O)cc1 (stereo not drawn)
Reply: 215 to 217 °C

###

PROPERTY NAME: melting point

Some compounds with known melting point results, for comparison:
>  <COMPOUND>
CC(C)(C)NS(=O)(=O)c1ccccc1-c1ccc(NC(=O)C(=O)O)cc1

>  <VALUE OBSERVED>
159 °C

$$$$
>  <COMPOUND>
O=C(CN1CCCC1)Nc1ccc(-c2cc(-c3c[nH]nc3-c3ccccn3)ccn2)cc1

>  <VALUE OBSERVED>
188 °C

$$$$
>  <COMPOUND>
CCCCc1c(C(=O)c2ccc(OC)cc2)[nH]c2ccc([N+](=O)[O-])cc12

>  <VALUE OBSERVED>
142 °C

$$$$
>  <COMPOUND>
Cc1c(-c2ccc(O)cc2O)c(=O)oc2cc(O)ccc12

>  <VALUE OBSERVED>
282 to 283 °C

$$$$

// moving on: another record for melting point
Query: Quick one: give measured melting point for COC(=O)Cn1cnc2c(C)c[nH]c2c1=O
Reply: 233 to 235 °C

###

PROPERTY NAME: melting point

>  <COMPOUND>
COc1cccc(SCCC(=O)O)c1

>  <PROPERTY NAME>
melting point

>  <VALUE OBSERVED>
39 to 42 °C

$$$$
>  <COMPOUND>
CCOC(=O)c1cnc2sc(C)c(C)n12

>  <PROPERTY NAME>
melting point

>  <VALUE OBSERVED>
60 to 61 °C

$$$$
>  <COMPOUND>
NC(=O)Cn1c(-c2ccc(Br)o2)nc2cccnc21

>  <PROPERTY NAME>
melting point

>  <VALUE OBSERVED>
> 250 °C

$$$$
>  <COMPOUND>
CCn1cc(C(=O)O)c(=O)c2cc(F)c(N3CCSC3)nc21

>  <PROPERTY NAME>
melting point

>  <VALUE OBSERVED>
268 to 270 °C

$$$$
>  <COMPOUND>
COc1ccc(C(=O)N2CCN(c3ccc([N+](=O)[O-])c(C=O)c3)CC2)cc1OC

>  <PROPERTY NAME>
melting point

>  <VALUE OBSERVED>
196 to 198 °C

$$$$
>  <COMPOUND>
Cc1oc(-c2ccccc2)nc1CCOc1ccc(CCC(=O)O)cc1

>  <PROPERTY NAME>
melting point

>  <VALUE OBSERVED>
142 to 144 °C

$$$$
>  <COMPOUND>
C[C@@H](NC(=NC#N)Nc1ccc(C#N)cc1)C(C)(C)C

>  <PROPERTY NAME>
melting point

>  <VALUE OBSERVED>
159 to 160 °C

$$$$
>  <COMPOUND>
CC1CCN(CCCCC(=O)c2ccc3c(c2)Cc2cc(C(=O)CCCCN4CCC(C)CC4)ccc2-3)CC1

>  <PROPERTY NAME>
melting point

>  <VALUE OBSERVED>
143 to 144 °C

$$$$
>  <COMPOUND>
CCc1nnc(CCc2ccc([N+](=O)[O-])cc2)o1

>  <PROPERTY NAME>
melting point

>  <VALUE OBSERVED>
65 to 66 °C

$$$$
>  <COMPOUND>
CN(Cc1ccccc1)c1nc2c(cc1C#N)C(=O)CC(C)(C)C2

>  <PROPERTY NAME>
melting point

>  <VALUE OBSERVED>
97 to 99 °C

$$$$

// moving on: another record for melting point
Query: Quick one: give measured melting point for O=C1CNC(c2ccc(Cl)cc2)=NN1CC(F)(F)F
Reply: 178 to 180 °C
